test system: biotinyl-Leu-oxazolone; experiment: self-aminoacylation, catalytic enhancement (BLO) (fold over background); higher = more active; k-Seq, kA / k0A0; sequences stand for … in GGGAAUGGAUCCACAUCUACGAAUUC…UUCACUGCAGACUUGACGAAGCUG
This sample holds only a part of the variants without activity.
Give true when the value for self-aminoacylation is at least 0.8. Give false when it is less.

Answered examples (5):
CUACUACUAACAAUCGGUCUG [Fam1A.1 aminoacylation ribozyme variant]: false
CUACUUGAAACAAUCGGUCUC [Fam1A.1 aminoacylation ribozyme variant]: false
CUUACUCUGGUCAUCGAGUGA [Fam2.1 aminoacylation ribozyme variant]: true
AUUCAACUAGGUUAUCGGGUG [Fam2.2 aminoacylation ribozyme variant]: true
AUUACCCUAGUCAGCGAGUGA [Fam2.1 aminoacylation ribozyme variant]: true

# input Textbook exercise: given the entry AUUACGCUGUUCAUCGAGUGA [Fam2.1 aminoacylation ribozyme variant] , state whether its self-aminoacylation is greater than or equal to 0.8.
# output true

# input Textbook exercise: given the entry CCACUUCUAACAAUCGGUCUG [Fam1A.1 aminoacylation ribozyme variant] , state whether its self-aminoacylation is greater than or equal to 0.8.
# output true

# input Textbook exercise: given the entry AGUACCCUUGUCAUCGAGUGA [Fam2.1 aminoacylation ribozyme variant] , state whether its self-aminoacylation is greater than or equal to 0.8.
# output true

# input Textbook exercise: given the entry AUUUACCUAGGUCAUCGCGUG [Fam2.2 aminoacylation ribozyme variant] , state whether its self-aminoacylation is greater than or equal to 0.8.
# output true

# input Textbook exercise: given the entry CCACCCCUCAAGCAAUCGGUC [Fam1B.1 aminoacylation ribozyme variant] , state whether its self-aminoacylation is greater than or equal to 0.8.
# output true

# input Textbook exercise: given the entry AUUCACUUACGUCAUCGGGUG [Fam2.2 aminoacylation ribozyme variant] , state whether its self-aminoacylation is greater than or equal to 0.8.
# output true

# input Textbook exercise: given the entry ACUCACCUAGGUCAACGGGUG [Fam2.2 aminoacylation ribozyme variant] , state whether its self-aminoacylation is greater than or equal to 0.8.
# output true

# input Textbook exercise: given the entry AUUACCCUAGUCAUCGAGUCA [Fam2.1 aminoacylation ribozyme variant] , state whether its self-aminoacylation is greater than or equal to 0.8.
# output false

###

tested on: biotinyl-Phe-oxazolone; assay: self-aminoacylation, catalytic enhancement (BFO) (fold over background); higher = more active; k-Seq, kA / k0A0; sequences stand for … in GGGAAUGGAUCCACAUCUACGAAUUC…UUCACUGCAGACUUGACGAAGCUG
This sample holds only a part of the variants without activity.
The reader will find reported self-aminoacylation values listed item by item below.
Give the figure only, with no unit attached.

CUACUUCAAACAAUCGAUCGG [Fam1A.1 aminoacylation ribozyme variant]: 0.743

# input Item under review: CGACACUUCAAGCAAUCGGAC [Fam1B.1 aminoacylation ribozyme variant] . Reported self-aminoacylation?
# output 1.21

# input Item under review: AAUUUUGAUAAUAGUCGCAAG [Fam3.1 aminoacylation ribozyme variant] . Reported self-aminoacylation?
# output 2.09

# input Item under review: AUCCACCUAGGUCAUCGGGUC [Fam2.2 aminoacylation ribozyme variant] . Reported self-aminoacylation?
# output 5.86

# input Item under review: CCACUCCUCAAGCAAUCGGUC [Fam1B.1 aminoacylation ribozyme variant] . Reported self-aminoacylation?
# output 1.26

# input Item under review: CUACAACAAACAAUCGGUCUG [Fam1A.1 aminoacylation ribozyme variant] . Reported self-aminoacylation?
# output 0.946

# input Item under review: AUUCACCUAGGUCAGCGAGUG [Fam2.2 aminoacylation ribozyme variant] . Reported self-aminoacylation?
# output 25.3

# input Item under review: AUUACGCUGGUCAUCCAGUGA [Fam2.1 aminoacylation ribozyme variant] . Reported self-aminoacylation?
# output 12.8

###

The reader will find reported self-aminoacylation values listed item by item below.
tested on: biotinyl-Met-oxazolone; assay: self-aminoacylation, catalytic enhancement (BMO) (fold over background); higher = more active; k-Seq, kA / k0A0; sequences stand for … in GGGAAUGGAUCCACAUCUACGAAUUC…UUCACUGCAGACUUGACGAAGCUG
This sample holds only a part of the variants without activity.
Give the figure only, with no unit attached.

Please review the following examples before continuing.
AAUUUUGAUAAUAGUCGCAAG [Fam3.1 aminoacylation ribozyme variant]: 1.66
AUGACCCUGGUCAUCGAGAGA [Fam2.1 aminoacylation ribozyme variant]: 1.47
GUUGACCUAGGUCAUCGGGUG [Fam2.2 aminoacylation ribozyme variant]: 3.52
CCACUCUUCAAGCACUCGGUC [Fam1B.1 aminoacylation ribozyme variant]: 1.15
CCACACUUCAAGCGAUCGGUA [Fam1B.1 aminoacylation ribozyme variant]: 1.48

# input Item under review: CCACACUUCAAAGAAUCGGUC [Fam1B.1 aminoacylation ribozyme variant] . Reported self-aminoacylation?
# output 0.888

# input Item under review: AUAACCCUAGUCAUCGAGUGA [Fam2.1 aminoacylation ribozyme variant] . Reported self-aminoacylation?
# output 5.44

# input Item under review: CCAGACUUCAAGCAAUCGUUC [Fam1B.1 aminoacylation ribozyme variant] . Reported self-aminoacylation?
# output 0.78

# input Item under review: AAGUUUGCUAAAAGUCGCGAG [Fam3.1 aminoacylation ribozyme variant] . Reported self-aminoacylation?
# output 2.21

# input Item under review: CUACUUCAAACAAUUGGUUUG [Fam1A.1 aminoacylation ribozyme variant] . Reported self-aminoacylation?
# output 0.676

# input Item under review: AUUCACCUUGGUCAGCGGGUG [Fam2.2 aminoacylation ribozyme variant] . Reported self-aminoacylation?
# output 3.99

# input Item under review: AAGUUUGAUGAUAGUCGCAAG [Fam3.1 aminoacylation ribozyme variant] . Reported self-aminoacylation?
# output 1.49

# input Item under review: AUUACCCUAGUCAUCGCGUGA [Fam2.1 aminoacylation ribozyme variant] . Reported self-aminoacylation?
# output 8.29

# input Item under review: CCACAAUUCAAGCAAUCGAUC [Fam1B.1 aminoacylation ribozyme variant] . Reported self-aminoacylation?
# output 0.699

# input Item under review: AGUACCCUGGUCAACGAGUGA [Fam2.1 aminoacylation ribozyme variant] . Reported self-aminoacylation?
# output 5.55

# input Item under review: AUCCACCUUGGUCAUCGGGUG [Fam2.2 aminoacylation ribozyme variant] . Reported self-aminoacylation?
# output 6.42

# input Item under review: AUAACCCUUGUCAUCGAGUGA [Fam2.1 aminoacylation ribozyme variant] . Reported self-aminoacylation?
# output 6.3

# input Item under review: AUUCACCUAUGUCAACGGGUG [Fam2.2 aminoacylation ribozyme variant] . Reported self-aminoacylation?
# output 2.83

# input Item under review: AUUCACUUAGGUUAUCGGGUG [Fam2.2 aminoacylation ribozyme variant] . Reported self-aminoacylation?
# output 3.33

# input Item under review: UUACUUCAAACAAUCUGUCUG [Fam1A.1 aminoacylation ribozyme variant] . Reported self-aminoacylation?
# output 1.42

# input Item under review: AUUCUCUUAGGUCAUCGGGUG [Fam2.2 aminoacylation ribozyme variant] . Reported self-aminoacylation?
# output 9.08

# input Item under review: ACACACUUCAAGCAACCGGUC [Fam1B.1 aminoacylation ribozyme variant] . Reported self-aminoacylation?
# output 1.51

# input Item under review: UUUCACGUAGGUCAUCGGGUG [Fam2.2 aminoacylation ribozyme variant] . Reported self-aminoacylation?
# output 4.24

# input Item under review: AAGUUUGCUAACAGUCGCAAU [Fam3.1 aminoacylation ribozyme variant] . Reported self-aminoacylation?
# output 1.22

# input Item under review: CCACACUUCAAGCAUUCAGUC [Fam1B.1 aminoacylation ribozyme variant] . Reported self-aminoacylation?
# output 0.505

# input Item under review: CUAGUUCUAACAAUCGGUCUG [Fam1A.1 aminoacylation ribozyme variant] . Reported self-aminoacylation?
# output 0.762

# input Item under review: CUUCACCUAGGUCAUUGGGUG [Fam2.2 aminoacylation ribozyme variant] . Reported self-aminoacylation?
# output 2.36

# input Item under review: AAGUUUUAUAAUAGUCGCAAG [Fam3.1 aminoacylation ribozyme variant] . Reported self-aminoacylation?
# output 1.77

# input Item under review: AUUCACCUAGGACAUUGGGUG [Fam2.2 aminoacylation ribozyme variant] . Reported self-aminoacylation?
# output 3.42

# input Item under review: AUCCACCUAGGUCAUCGGGAG [Fam2.2 aminoacylation ribozyme variant] . Reported self-aminoacylation?
# output 1.65

# input Item under review: CGACACUUAAAGCAAUCGGUC [Fam1B.1 aminoacylation ribozyme variant] . Reported self-aminoacylation?
# output 0.956

# input Item under review: CCACACUGCAAGCAAUCGAUC [Fam1B.1 aminoacylation ribozyme variant] . Reported self-aminoacylation?
# output 0.56

# input Item under review: CUACUUCAAAGAAUCCGUCUG [Fam1A.1 aminoacylation ribozyme variant] . Reported self-aminoacylation?
# output 0.942

# input Item under review: AUUCGCCUAGGUCAUCAGGUG [Fam2.2 aminoacylation ribozyme variant] . Reported self-aminoacylation?
# output 1.97

# input Item under review: AUUACCCAGGUCAUCGGGUGA [Fam2.1 aminoacylation ribozyme variant] . Reported self-aminoacylation?
# output 11.5
